assay.summary: AUC in dog at 10 mg/kg, po
Format: ADME, organism-based, Canis lupus familiaris
Set-up: dose 10 mg/kg, route oral
test.conditions: plasma
reported.endpoint: AUC (ng·h/mL)

INSERT INTO results (smiles_text, result) VALUES
  ('Cc1ncnc(C)c1C(=O)N1C[C@H]2CN(CC[C@H](NC(=O)CC3CCC(F)(F)CC3)c3ccccc3)C[C@H]2C1', 4210);

* * *

Tested on: Caco-2
assay.summary: Efflux ratio of permeability from basolateral to apical over apical to basolateral side in human Caco-2 cells after 21 days
test.conditions: caco-2, 504 h
// values below are reported Ratio
reported.endpoint: Ratio

INSERT INTO measurements (smiles_text, reported_endpoint, result) VALUES
  ('COc1cc(C)c(C(=O)N2C[C@H]3CN(CC[C@H](NC(=O)C4CCCC4)c4ccccc4)C[C@H]3C2)c(C)c1', 'Ratio', 2),
  ('Cc1cccc(C)c1C(=O)N1C[C@H]2CN(CC[C@H](NC(=O)C3CCCC3)c3ccccc3)C[C@H]2C1', 'Ratio', 5),
  ('Cc1cc(=O)[nH]c(C)c1C(=O)N1C[C@H]2CN(CC[C@H](NC(=O)C3CCCC3)c3ccccc3)C[C@H]2C1', 'Ratio', 5),
  ('Cc1cc[n+]([O-])c(C)c1C(=O)N1C[C@H]2CN(CC[C@H](NC(=O)C3CCCC3)c3ccccc3)C[C@H]2C1', 'Ratio', 300);

* * *

assay.summary: Oral bioavailability in rat at 10 mg/kg
Assay type: ADME, organism-based
test.conditions: in vivo
reported.endpoint: bioavailability (%)

INSERT INTO results (smiles_text, reported_endpoint, result) VALUES
  ('Cc1ncnc(C)c1C(=O)N1C[C@H]2CN(CC[C@H](NC(=O)CC3CCC(F)(F)CC3)c3ccccc3)C[C@H]2C1', 'bioavailability', 15),
  ('Cc1ncnc(C)c1C(=O)N1C[C@H]2CN(CC[C@H](NC(=O)C3CCCC3)c3ccccc3)C[C@H]2C1', 'bioavailability', 17),
  ('Cc1cccc(C)c1C(=O)N1C[C@H]2CN(CC[C@H](NC(=O)C3CCCC3)c3ccccc3)C[C@H]2C1', 'bioavailability', 2.7),
  ('Cc1ccnc(C)c1C(=O)N1C[C@H]2CN(CC[C@H](NC(=O)C3CCCC3)c3ccccc3)C[C@H]2C1', 'bioavailability', 6.4);

* * *

assay.summary: Oral bioavailability in dog at 10 mg/kg
Format: ADME, organism-based, Canis lupus familiaris
test.conditions: in vivo
reported.endpoint: bioavailability (%)

INSERT INTO results (smiles_text, result) VALUES
  ('Cc1ncnc(C)c1C(=O)N1C[C@H]2CN(CC[C@H](NC(=O)CC3CCC(F)(F)CC3)c3ccccc3)C[C@H]2C1', 103);

* * *

assay.summary: Intrinsic clearance in rat liver microsomes assessed per mg of protein
Format: ADME, Microsome
molecules and their reported microsomal CLint
reported.endpoint: microsomal CLint (µL/min/mg)

INSERT INTO measurements (smiles_text, reported_endpoint, result) VALUES
  ('Cc1ncnc(C)c1C(=O)N1C[C@H]2CN(CC[C@H](NC(=O)CC3CC(F)(F)C3)c3ccccc3)C[C@H]2C1', 'microsomal CLint', 61),
  ('Cc1ncnc(C)c1C(=O)N1C[C@H]2CN(CC[C@H](NC(=O)C3CCCC3)c3ccccc3)C[C@H]2C1', 'microsomal CLint', 51),
  ('Cc1cc(=O)[nH]c(C)c1C(=O)N1C[C@H]2CN(CC[C@H](NC(=O)C3CCCC3)c3ccccc3)C[C@H]2C1', 'microsomal CLint', 25),
  ('Cc1cc[n+]([O-])c(C)c1C(=O)N1C[C@H]2CN(CC[C@H](NC(=O)C3CCCC3)c3ccccc3)C[C@H]2C1', 'microsomal CLint', 12);
